Values from ChEMBL document CHEMBL3739302

target: Peroxisome proliferator-activated receptor delta (Homo sapiens, UniProt Q03181); assay: Binding affinity to GST-PPAR-beta/delta LBP (unknown origin) after 3 hrs by TR-FRET assay
quantity_measured: IC50 (nM)

Below: 2 compounds and their reported IC50.
O=C(NCCS(=O)(=O)c1ccc(C(F)(F)F)cn1)c1ccc(Cl)cc1 ... 233
Cc1nc(-c2ccc(C(F)(F)F)cc2)sc1C(=O)NCCS(=O)(=O)c1ccc(C(F)(F)F)cn1 ... 284

a = O=C(NCCS(=O)(=O)c1ccc(C(F)(F)F)cn1)c1ccc2ccccc2c1
b = CN1CCN(c2ccc(/C=C(\C#N)c3ccccc3Br)cc2)CC1
c = O=C(NCCS(=O)(=O)c1ccc(C(F)(F)F)cn1)c1cnc2ccccc2c1
d = O=C(NCCS(=O)(=O)c1ccc(C(F)(F)F)cn1)c1ccc2c(c1)CCCC2
[Q] Your job: order these 4 records by IC50, ascending. Give the labels in the order requested.
[A] b, a, d, c

====

target: Peroxisome proliferator-activated receptor delta (Homo sapiens, UniProt Q03181); assay: Binding affinity to GST-PPAR-beta/delta LBP (unknown origin) after 40 mins by TR-FRET assay
quantity_measured: IC50 (nM)

O=C(NCCS(=O)(=O)c1ccc(C(F)(F)F)cn1)c1ccc(Cl)cc1 ... 825

P = O=C(NCCS(=O)(=O)c1ccc(C(F)(F)F)cn1)c1cnc2ccccc2c1
Q = CN1CCN(c2ccc(/C=C(\C#N)c3ccccc3Br)cc2)CC1
[Q] Select the item whose IC50 value is smaller, choosing between P and Q . Mark your answer with the label of the selected entry.
[A] Q

====

molecular target: Peroxisome proliferator-activated receptor delta (Homo sapiens); test: Binding affinity to GST-PPAR-beta/delta LBP (unknown origin) after 1 hr by TR-FRET assay
pIC50: −log10 of the molar value.
quantity_measured: pIC50

O=C(NCCS(=O)(=O)c1ccc(C(F)(F)F)cn1)c1ccc2c(c1)CCCC2 ... 5.82
Cc1nc(-c2ccc(C(F)(F)F)cc2)sc1C(=O)NCCS(=O)(=O)c1ccc(C(F)(F)F)cn1 ... 6.37
O=C(NCCS(=O)(=O)c1ccc(C(F)(F)F)cn1)c1ccc2ccccc2c1 ... 6.12

P = O=C(NCCS(=O)(=O)c1ccc(C(F)(F)F)cn1)c1ccc(Cl)cc1
Q = O=C(NCCS(=O)(=O)c1ccc(C(F)(F)F)cn1)c1cnc2ccccc2c1
R = CN1CCN(c2ccc(/C=C(\C#N)c3ccccc3Br)cc2)CC1
[Q] Rank items: key pIC50, increasing. Give the labels in the order requested.
[A] Q, P, R

====

Biological target: Peroxisome proliferator-activated receptor delta (Homo sapiens)
Sequence (Q03181 whole entry): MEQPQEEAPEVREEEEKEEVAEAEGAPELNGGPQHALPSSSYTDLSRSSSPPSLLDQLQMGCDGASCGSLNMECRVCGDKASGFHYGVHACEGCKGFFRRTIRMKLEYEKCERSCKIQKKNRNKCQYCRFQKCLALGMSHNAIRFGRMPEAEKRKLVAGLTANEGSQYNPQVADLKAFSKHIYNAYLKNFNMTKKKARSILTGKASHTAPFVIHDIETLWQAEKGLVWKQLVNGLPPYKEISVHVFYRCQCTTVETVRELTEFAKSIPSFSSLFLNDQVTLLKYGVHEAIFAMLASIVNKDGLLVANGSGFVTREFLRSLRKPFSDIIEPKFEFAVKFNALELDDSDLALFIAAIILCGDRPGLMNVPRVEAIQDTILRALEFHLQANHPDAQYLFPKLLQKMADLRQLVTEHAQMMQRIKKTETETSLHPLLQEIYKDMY
Experiment: Binding affinity to GST-PPAR-beta/delta LBP (unknown origin) after 2 hrs by TR-FRET assay
pIC50: −log10 of the molar value.
quantity_measured: pIC50

Cc1nc(-c2ccc(C(F)(F)F)cc2)sc1C(=O)NCCS(=O)(=O)c1ccc(C(F)(F)F)cn1 ... 6.52

P = O=C(NCCS(=O)(=O)c1ccc(C(F)(F)F)cn1)c1cnc2ccccc2c1
Q = O=C(NCCS(=O)(=O)c1ccc(C(F)(F)F)cn1)c1ccc(Cl)cc1
R = O=C(NCCS(=O)(=O)c1ccc(C(F)(F)F)cn1)c1ccc2c(c1)CCCC2
S = CN1CCN(c2ccc(/C=C(\C#N)c3ccccc3Br)cc2)CC1
T = O=C(NCCS(=O)(=O)c1ccc(C(F)(F)F)cn1)c1ccc2ccccc2c1
[Q] Rank order required: pIC50, descending. I'd appreciate it if you listed the labels in the requested order.
[A] S, Q, T, R, P

====

Molecular target: Peroxisome proliferator-activated receptor delta (Homo sapiens, UniProt Q03181)
Sequence (Q03181 whole entry): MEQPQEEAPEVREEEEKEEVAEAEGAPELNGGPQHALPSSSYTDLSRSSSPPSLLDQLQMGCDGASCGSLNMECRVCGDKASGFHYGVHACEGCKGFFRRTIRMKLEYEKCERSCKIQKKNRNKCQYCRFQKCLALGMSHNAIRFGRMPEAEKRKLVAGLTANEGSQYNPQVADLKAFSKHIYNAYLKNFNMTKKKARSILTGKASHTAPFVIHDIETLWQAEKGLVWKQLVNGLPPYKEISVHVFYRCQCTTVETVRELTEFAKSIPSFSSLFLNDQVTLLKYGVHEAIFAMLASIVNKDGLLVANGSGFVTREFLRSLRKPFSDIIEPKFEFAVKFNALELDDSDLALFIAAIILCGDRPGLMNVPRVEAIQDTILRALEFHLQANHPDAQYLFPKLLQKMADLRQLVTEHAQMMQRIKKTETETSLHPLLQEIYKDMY
Assay: Binding affinity to GST-PPAR-beta/delta LBP (unknown origin) after 24 hrs by TR-FRET assay
pIC50: −log10 of the molar value.
quantity_measured: pIC50

O=C(NCCS(=O)(=O)c1ccc(C(F)(F)F)cn1)c1ccc2c(c1)CCCC2 ... 6.57
CN1CCN(c2ccc(/C=C(\C#N)c3ccccc3Br)cc2)CC1 ... 7.32

A = O=C(NCCS(=O)(=O)c1ccc(C(F)(F)F)cn1)c1cnc2ccccc2c1
B = O=C(NCCS(=O)(=O)c1ccc(C(F)(F)F)cn1)c1ccc(Cl)cc1
[Q] Lab note: record which item had the higher pIC50, A or B . Let me know the label of the one you choose.
[A] B

====

Molecular target: Peroxisome proliferator-activated receptor delta (Homo sapiens, UniProt Q03181)
Sequence (Q03181 whole entry): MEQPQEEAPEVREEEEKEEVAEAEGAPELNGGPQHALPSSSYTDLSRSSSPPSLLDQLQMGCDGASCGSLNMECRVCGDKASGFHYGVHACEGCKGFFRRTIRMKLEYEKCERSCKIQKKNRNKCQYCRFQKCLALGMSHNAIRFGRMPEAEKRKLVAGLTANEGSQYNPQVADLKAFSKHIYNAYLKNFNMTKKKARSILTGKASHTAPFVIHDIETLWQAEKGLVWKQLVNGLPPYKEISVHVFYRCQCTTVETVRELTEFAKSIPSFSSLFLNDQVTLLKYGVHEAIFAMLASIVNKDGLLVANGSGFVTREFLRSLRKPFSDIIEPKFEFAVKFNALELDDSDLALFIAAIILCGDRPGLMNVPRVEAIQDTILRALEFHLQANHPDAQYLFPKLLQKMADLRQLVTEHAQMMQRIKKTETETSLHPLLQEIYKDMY
Experiment: Binding affinity to GST-PPAR-beta/delta LBP (unknown origin) after 20 mins by TR-FRET assay
quantity_measured: IC50 (nM)

O=C(NCCS(=O)(=O)c1ccc(C(F)(F)F)cn1)c1ccc2c(c1)CCCC2 ... 4220
CN1CCN(c2ccc(/C=C(\C#N)c3ccccc3Br)cc2)CC1 ... 29
Cc1nc(-c2ccc(C(F)(F)F)cc2)sc1C(=O)NCCS(=O)(=O)c1ccc(C(F)(F)F)cn1 ... 949

1 = O=C(NCCS(=O)(=O)c1ccc(C(F)(F)F)cn1)c1ccc(Cl)cc1
2 = O=C(NCCS(=O)(=O)c1ccc(C(F)(F)F)cn1)c1ccc2ccccc2c1
[Q] Larger number for IC50: 1 , or 2 ? Write the label of whichever entry you select.
[A] 2

====

target: Peroxisome proliferator-activated receptor delta (Homo sapiens, UniProt Q03181); experiment: Binding affinity to GST-PPAR-beta/delta LBP (unknown origin) after 40 mins by TR-FRET assay
pIC50: −log10 of the molar value.
quantity_measured: pIC50

a = O=C(NCCS(=O)(=O)c1ccc(C(F)(F)F)cn1)c1ccc2c(c1)CCCC2
b = Cc1nc(-c2ccc(C(F)(F)F)cc2)sc1C(=O)NCCS(=O)(=O)c1ccc(C(F)(F)F)cn1
c = O=C(NCCS(=O)(=O)c1ccc(C(F)(F)F)cn1)c1ccc2ccccc2c1
[Q] Arrange the 3 entries by pIC50 so the values rise. Rank the items, then write their labels in that order.
[A] a, c, b
(a: 5.71, c: 6.03, b: 6.24)
